So I've got a bunch of compounds here, and I need their % Suppression vs. Vehicle values.
Molecular target: UniProt:P58681
Sequence (P58681 27-1050): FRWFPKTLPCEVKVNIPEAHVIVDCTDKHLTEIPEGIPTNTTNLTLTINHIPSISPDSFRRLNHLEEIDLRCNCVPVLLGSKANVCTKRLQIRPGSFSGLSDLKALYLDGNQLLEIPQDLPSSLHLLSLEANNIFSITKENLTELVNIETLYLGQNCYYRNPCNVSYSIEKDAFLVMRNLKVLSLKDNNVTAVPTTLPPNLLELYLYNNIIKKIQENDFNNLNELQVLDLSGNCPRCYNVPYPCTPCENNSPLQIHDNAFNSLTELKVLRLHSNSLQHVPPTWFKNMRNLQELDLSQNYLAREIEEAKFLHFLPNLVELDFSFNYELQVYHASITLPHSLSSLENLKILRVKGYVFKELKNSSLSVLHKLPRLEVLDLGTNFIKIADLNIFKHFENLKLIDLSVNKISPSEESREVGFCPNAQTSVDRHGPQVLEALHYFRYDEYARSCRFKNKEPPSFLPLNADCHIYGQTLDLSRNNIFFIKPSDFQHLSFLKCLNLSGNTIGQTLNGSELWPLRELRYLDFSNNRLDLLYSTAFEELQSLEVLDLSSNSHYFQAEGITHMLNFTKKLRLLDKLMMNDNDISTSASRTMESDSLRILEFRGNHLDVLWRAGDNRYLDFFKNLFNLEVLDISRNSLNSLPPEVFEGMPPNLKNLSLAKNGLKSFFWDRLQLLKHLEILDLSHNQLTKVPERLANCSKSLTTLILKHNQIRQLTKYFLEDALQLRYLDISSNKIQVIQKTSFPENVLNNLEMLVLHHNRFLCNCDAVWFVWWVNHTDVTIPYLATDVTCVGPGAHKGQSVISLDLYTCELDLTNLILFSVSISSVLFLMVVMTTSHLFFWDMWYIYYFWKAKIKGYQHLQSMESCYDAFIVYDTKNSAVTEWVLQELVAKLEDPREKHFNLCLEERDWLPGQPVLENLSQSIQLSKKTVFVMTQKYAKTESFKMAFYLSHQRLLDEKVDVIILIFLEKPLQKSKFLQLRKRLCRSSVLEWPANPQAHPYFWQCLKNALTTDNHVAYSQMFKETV
Assay: Short-term in vivo (STIV) assay: oral dosing, R848 s.c., plasma IL-6
Parameters: female BALB/c mice (Jackson Labs, Bar Harbor, Me.) were dosed by oral gavage; tissue Jackson Labs; host or cells: living female BALB/c mice; plasma IL-6 after s.c. R848
Details: 6 h; 100 mg/kg
Use % as the unit, but write only the number.

Incoming: Requested read-out % Suppression vs. Vehicle, target or system UniProt:P58681, entry `C[C@@H]1CN(c2ccc(C#N)c3ncccc23)C[C@H](CNC2CCCC2)O1`
Outgoing: 99

Incoming: Given the entry `CNCC1CN(C(=O)[C@H]2CN(c3ccc(C#N)c4ncccc34)C[C@@H](C)O2)C1` , what % Suppression vs. Vehicle was observed with UniProt:P58681?
Outgoing: 73

Incoming: Return % Suppression vs. Vehicle measured with UniProt:P58681 given this compound: `C[C@@H]1CN(c2ccc(C#N)c3ncccc23)C[C@H](CN2CC[C@H](N3CCCC3)C2)O1`
Outgoing: 99

Incoming: # get_value(readout= % Suppression vs. Vehicle, system= UniProt:P58681) for CC1CN(c2ccc(C#N)c3ncccc23)CC(C(=O)NC2CNCCC2F)O1.Cl (mixture of isomers)
Outgoing: 96

Incoming: Item `C[C@@H]1CN(c2ccc(C#N)c3ncccc23)C[C@H](C(=O)N[C@@H]2CCCN(C)C2)O1` with UniProt:P58681 - % Suppression vs. Vehicle?
Outgoing: 99

Incoming: Report % Suppression vs. Vehicle for `C[C@@H]1CN(c2ccc(C#N)c3ncccc23)C[C@H](C(=O)NC2(C)CCN(C)CC2)O1` tested on UniProt:P58681.
Outgoing: 99

Incoming: Give recorded % Suppression vs. Vehicle with UniProt:P58681 for the following compound: `C[C@@H]1CN(C[C@H]2CN(c3ccc(C#N)c4ncccc34)C[C@@H](C)O2)CCN1`
Outgoing: 100

Incoming: Missing value: % Suppression vs. Vehicle, UniProt:P58681, entry `C[C@@H]1CN(c2ccc(C#N)c3ncccc23)C[C@H](CN2CCC(C(N)=O)CC2)O1` . Fill in?
Outgoing: 94

Incoming: Form: Entry = CC1CN(c2ccc(C#N)c3ncccc23)CC(C(=O)Nc2cnn(C3CCNCC3)c2)O1 (stereo not drawn) | System = UniProt:P58681 | % Suppression vs. Vehicle = ____
Outgoing: 75

Incoming: Reported % Suppression vs. Vehicle for UniProt:P58681, given `CC[C@H]1CN(C[C@H]2CN(c3ccc(C#N)c4ncccc34)C[C@@H](C)O2)CCN1` ?
Outgoing: 99

Incoming: Recorded % Suppression vs. Vehicle for `C[C@@H]1CN(c2ccc(C#N)c3ncccc23)C[C@H](CNC2CCCCC2)O1` with UniProt:P58681, please?
Outgoing: 100

Incoming: Hi! What's the reported % Suppression vs. Vehicle for CC1CN(c2ccc(C#N)c3ncccc23)CC(CN2CC(N3CCCCC3)C2)O1 (stereo not drawn) on UniProt:P58681?
Outgoing: 100
